Entries annotated with measured RBAβ / RBAα
- Study system: ERβ (Homo sapiens, UniProt Q92731)
- Sequence (Q92731 whole entry): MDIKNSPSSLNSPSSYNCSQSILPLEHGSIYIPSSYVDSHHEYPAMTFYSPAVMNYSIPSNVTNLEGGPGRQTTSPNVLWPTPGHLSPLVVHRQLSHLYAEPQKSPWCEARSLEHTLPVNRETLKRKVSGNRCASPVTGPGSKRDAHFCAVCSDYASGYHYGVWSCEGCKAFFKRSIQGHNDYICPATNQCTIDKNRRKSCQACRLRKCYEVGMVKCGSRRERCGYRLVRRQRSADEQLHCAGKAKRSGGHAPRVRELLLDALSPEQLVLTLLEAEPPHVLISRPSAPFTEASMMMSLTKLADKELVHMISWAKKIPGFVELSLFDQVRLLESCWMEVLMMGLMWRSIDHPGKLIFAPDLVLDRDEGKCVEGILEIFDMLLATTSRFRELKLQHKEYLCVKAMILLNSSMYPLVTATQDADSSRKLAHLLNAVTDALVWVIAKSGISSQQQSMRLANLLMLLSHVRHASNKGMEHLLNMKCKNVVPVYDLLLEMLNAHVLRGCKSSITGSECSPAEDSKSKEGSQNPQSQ
- Test protocol: ER binding competitor assay (fluorescent estrogen ES2), ERβ
- Design: purchased Invitrogen
- Test parameters: ERβ-binding selectivity
Just the number.

[
  {
    "Compound": "COc1ccc(-c2coc3c(OC)c(O)ccc3c2=O)cc1 [Compound 2, 8-methoxyformononetin]",
    "Numeric readout": 2.50
  }
]

Look at this compound and give its reported RBAβ / RBAα. COc1cc(O)cc2occ(-c3ccc(O)c(O)c3)c(=O)c12 [Compound 7, 5-O-methylorobol]
1.15

Cool, now COc1cc(OC2OC(CO)C(O)C(O)C2O)cc2occ(-c3ccc(O)cc3)c(=O)c12 (stereo not shown) [Compound 10, 7-O-glucopyranosyl-isoprunetin]
1.50

Cool, now COc1cc(-c2coc3c(C4OC(CO)C(O)C(O)C4O)c(O)cc(O)c3c2=O)ccc1O (stereo not shown) [Compound 13, 8-C-glucopyranosyl-3΄-O-methylorobol]
1.00
